system_under_test: human GnRH receptor (Homo sapiens, UniProt P30968)
Construct: expressed in transfected cells; host or cells: HEK 293 (hGnRH-R/293, from Dr. Stuart Sealfon)
Sequence (P30968 whole entry): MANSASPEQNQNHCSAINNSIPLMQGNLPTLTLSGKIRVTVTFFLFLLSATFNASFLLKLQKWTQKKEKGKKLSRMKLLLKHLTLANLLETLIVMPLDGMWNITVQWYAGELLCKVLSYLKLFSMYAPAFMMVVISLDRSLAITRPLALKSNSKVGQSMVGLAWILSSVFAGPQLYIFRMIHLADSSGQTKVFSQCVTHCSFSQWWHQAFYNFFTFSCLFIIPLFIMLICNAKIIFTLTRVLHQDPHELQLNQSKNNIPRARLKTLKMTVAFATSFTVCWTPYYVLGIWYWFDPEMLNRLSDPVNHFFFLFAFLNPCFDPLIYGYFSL
protocol_text: Radioligand binding, 125I-GnRH-A displacement, membranes of HEK 293 cells with human GnRH receptor
condition_info: 1 uM; read-out: % Inhib. @ 1 uM hGnRH
quantity: inhibition at 1 µM (%)
Report only the number, with the unit % understood.

Req: What measured inhibition at 1 µM goes with CC(=O)NCCNC(=O)c1ccc(Cc2cc3c(cc2C)C(C)(C)CCC3(C)C)o1 [drawing 991] ?
Resp: 52

Req: What measured inhibition at 1 µM goes with Cc1cc2c(cc1Cc1ccc(C(=O)NCc3ccc(F)cc3F)o1)C(C)(C)CCC2(C)C [drawing 1197] ?
Resp: 74

Req: What measured inhibition at 1 µM goes with Cc1cc2c(cc1Cc1ccc(C(=O)NCc3ccc(C(C)(C)C)cc3)o1)C(C)(C)CCC2(C)C [drawing 1140] ?
Resp: -14

Req: What measured inhibition at 1 µM goes with Cc1cc2c(cc1Cc1ccc(C(=O)N(CC(O)c3ccccc3)C3CCCCC3)o1)C(C)(C)CCC2(C)C (stereo not shown) ?
Resp: -12

Req: What measured inhibition at 1 µM goes with Cc1cc2c(cc1Cc1ccc(C(=O)NCc3cccc4ccccc34)o1)C(C)(C)CCC2(C)C [drawing 1120] ?
Resp: 61

Req: What measured inhibition at 1 µM goes with Cc1cc2c(cc1Cc1ccc(C(=O)NC3CCCCC3Cc3nccc(NCC4CCCO4)n3)o1)C(C)(C)CCC2(C)C (stereo not shown) ?
Resp: -21

Req: What measured inhibition at 1 µM goes with Cc1cc2c(cc1Cc1ccc(C(=O)NC(CO)[C@H](O)c3ccc([N+](=O)[O-])cc3)o1)C(C)(C)CCC2(C)C (stereo partly shown) ?
Resp: -10

Req: What measured inhibition at 1 µM goes with Cc1cc2c(cc1Cc1ccc(C(=O)NCc3cccc(NC(=O)N(Cc4ccccc4)c4ccccc4)c3)o1)C(C)(C)CCC2(C)C [drawing 1029] ?
Resp: -4

Req: What measured inhibition at 1 µM goes with Cc1cc2c(cc1Cc1ccc(C(=O)NCCC(=O)NC(c3ccccc3)c3ccccc3)o1)C(C)(C)CCC2(C)C ?
Resp: -23

Req: What measured inhibition at 1 µM goes with Cc1cc2c(cc1Cc1ccc(C(=O)NCC3CCNCC3)o1)C(C)(C)CCC2(C)C [drawing 981] ?
Resp: 20

Req: What measured inhibition at 1 µM goes with Cc1cc2c(cc1Cc1ccc(C(=O)NCC(F)(F)F)o1)C(C)(C)CCC2(C)C [drawing 1018] ?
Resp: 18

Req: What measured inhibition at 1 µM goes with Cc1cc2c(cc1Cc1ccc(C(=O)NCCCN(CCO)CCO)o1)C(C)(C)CCC2(C)C ?
Resp: 35

Req: What measured inhibition at 1 µM goes with Cc1cc2c(cc1Cc1ccc(C(=O)NCc3cccnc3)o1)C(C)(C)CCC2(C)C [drawing 1067] ?
Resp: 69

Req: What measured inhibition at 1 µM goes with COCCNC(=O)c1ccc(Cc2cc3c(cc2C)C(C)(C)CCC3(C)C)o1 [drawing 1155] ?
Resp: 55

Req: What measured inhibition at 1 µM goes with Cc1cc2c(cc1Cc1ccc(C(=O)NCc3ccc(F)c(F)c3)o1)C(C)(C)CCC2(C)C [drawing 1030] ?
Resp: 55

Req: What measured inhibition at 1 µM goes with Cc1cc2c(cc1Cc1ccc(C(=O)NCCN3CCNC3=O)o1)C(C)(C)CCC2(C)C [drawing 1041] ?
Resp: 32
